Read-out: Monokine induced gamma interferon (MIG), CXCL9 (gene 4283)
protocol text: BSK_SAg_MIG: BioMAP Diversity Plus: SAg Assay for Monokine induced gamma interferon (MIG) Biomarker Activity (AID 2283092)
condition notes: primary human HUVEC with PBMC; actives raise or lower the signal
Description: BSK_SAg is a cell-based, multiplexed-readout assay that uses umbilical vein endothelium and peripheral blood mononuclear cells, a human vascular primary cell co-culture, with measurements taken at 24 hours after chemical dosing in a 96-well plate.BSK_SAg_MIG is an assay component measured in the BSK_SAg assay. It measures MIG antibody related to regulation of gene expression using ELISA technology.Data from the assay component BSK_SAg_MIG was analyzed into 1 assay endpoint. […]
Calls of active or inactive are those of the source. Rule for the calls: active = hit-call score of the fitted dose curve at least 0.9, where 1 is the maximum; inactive = score below 0.9.
Hi there, use one of these labels in your reply, thanks! Y for active, N for inactive

Incoming: Fill in: this test's call for `CCOc1nc(F)cc2nc(S(=O)(=O)Nc3c(Cl)cccc3Cl)nn12` is ___
Outgoing: N

Incoming: Per the assay record, what outcome was assigned to CC1(C)C(C(=O)OC(C#N)c2cccc(Oc3ccccc3)c2)C1(C)C (stereo not drawn) ?
Outgoing: N

Incoming: Could you check what this test reported for `CC(C)N1C(=O)N(c2ccccc2)CSC1=NC(C)(C)C` ?
Outgoing: Y

Incoming: Please indicate how the test categorized CCCCC(C#N)(Cn1cncn1)c1ccc(Cl)cc1 (stereo not drawn) .
Outgoing: N

Incoming: Look up the recorded call for CC(C)C1(C)N=C(c2ncccc2C(=O)O)NC1=O (stereo not drawn) in this test.
Outgoing: N

Incoming: Check the results log: what was the call for `COC(=O)c1c(C(F)F)nc(C(F)(F)F)c(C2=NCCS2)c1CC(C)C` ?
Outgoing: N

Incoming: Tell me the recorded outcome of this test for `CSC(=O)c1c(C(F)F)nc(C(F)(F)F)c(C(=O)SC)c1CC(C)C` .
Outgoing: N

Incoming: Test call, this compound: `O=C(Nc1ccccc1-c1ccc(Cl)cc1)c1cccnc1Cl`
Outgoing: N

Incoming: Please let me know the test result on file for CCC(C)n1c(=O)[nH]c(C)c(Br)c1=O (stereo not drawn) .
Outgoing: N

Incoming: What outcome does the record of this test show for `Cc1cc(C)nc(Nc2ccccc2)n1` ?
Outgoing: N

Incoming: How did this test come out for CCNP(=S)(OC)O/C(C)=C/C(=O)OC(C)C (stereo not drawn) ?
Outgoing: N

Incoming: Check the results log: what was the call for `CC(C)N1C(=O)c2ccccc2NS1(=O)=O` ?
Outgoing: N

Incoming: Write down the call the test reported for this compound. Item: CC1(C)CCC(=Cc2ccc(Cl)cc2)C1(O)Cn1cncn1 (stereo not drawn)
Outgoing: N

Incoming: Hi, sorry to bother you, what did the test record for `CC(C)Nc1nc(Cl)nc(NC(C)C)n1` ?
Outgoing: N

Incoming: Assay outcome for CC(C)(C)C(=O)C(Oc1ccc(Cl)cc1)n1cncn1 (stereo not drawn) : what was it?
Outgoing: N

Incoming: What did this assay record as the result for `CN/C(=N\[N+](=O)[O-])NCc1cnc(Cl)s1` ?
Outgoing: N

Incoming: Dear colleague, could you share the recorded outcome for `N#CN=C1SCCN1Cc1ccc(Cl)nc1` when you have a moment?
Outgoing: N

Incoming: I'd appreciate the recorded outcome for `COc1cc(OC)nc(NC(=O)NS(=O)(=O)c2ncccc2OCC(F)(F)F)n1` from this test.
Outgoing: N

Incoming: # lookup: test call for CCCC(=NOCC)C1=C(O)CC(CC(C)SCC)CC1=O (stereo not drawn)
Outgoing: N

Incoming: What was the test verdict on `C=CCOC(=O)C(C)(C)OC(=O)c1cc(-n2c(=O)cc(C(F)(F)F)n(C)c2=O)ccc1Cl` ?
Outgoing: N

Incoming: Identify the outcome logged in this assay for the compound shown: CC(C)=CC1C(C(=O)OCc2coc(Cc3ccccc3)c2)C1(C)C (stereo not drawn)
Outgoing: N

Incoming: Hi, do you know how `CS(=O)(=O)c1ccc(C(=O)C2C(=O)CCCC2=O)c([N+](=O)[O-])c1` came out in this test?
Outgoing: N

Incoming: Entry `CC(C)NC(=O)N1CC(=O)N(c2cc(Cl)cc(Cl)c2)C1=O` : call = ?
Outgoing: N
